tested on: MDA-MB-453; assay: normalised response (% of control), CellTiter-Glo; higher = more viable cells (100 = DMSO, 0 = benzethonium chloride kill control); conditions: incubation time: 72 h
Reported normalised response values for the following compounds.
PARAMETER: normalised response (%)

[[record]]
compound = "Cn1c(Nc2ccc(C(F)(F)F)cc2)nc2cc(Oc3ccnc(-c4ncc(C(F)(F)F)[nH]4)c3)ccc21 [RAF265] (1000 nM)"
parameter = "normalised response"
test_value = 95.8

[[record]]
compound = "C[C@]12CC[C@@H]3c4ccc(O)cc4C[C@@H](CCCCCCCCC[S+]([O-])CCCC(F)(F)C(F)(F)F)[C@H]3[C@@H]1CC[C@@H]2O (some centres not stated) [Fulvestrant] (1000 nM)"
parameter = "normalised response"
test_value = 95.6

[[record]]
compound = "Oc1nc(-c2ccc(C(F)(F)F)cc2)nc2c1CSCC2 [XAV-939] (10000 nM)"
parameter = "normalised response"
test_value = 81.7

[[record]]
compound = "CCCCCCCCCCCCCCCCCCOP(=O)([O-])OC1CC[N+](C)(C)CC1 [Perifosine] (2500 nM)"
parameter = "normalised response"
test_value = 98.6

[[record]]
compound = "COc1cc2nccc(Oc3ccc(NC(=O)C4(C(=O)Nc5ccc(F)cc5)CC4)cc3)c2cc1OC [Cabozantinib] (1000 nM)"
parameter = "normalised response"
test_value = 95.4

[[record]]
compound = "CN[C@@H]1C[C@H]2O[C@@](C)([C@@H]1OC)n1c3ccccc3c3c4c(c5c6ccccc6n2c5c31)C(=O)N[C@H]4O [UCN-01] (10000 nM)"
parameter = "normalised response"
test_value = 5.51

[[record]]
compound = "O=C(CCCCCCC(=O)Nc1ccc([C@H]2O[C@@H](CSc3nc(-c4ccccc4)c(-c4ccccc4)o3)C[C@@H](c3ccc(CO)cc3)O2)cc1)NO [Tubacin] (10000 nM)"
parameter = "normalised response"
test_value = 6.07


---

system: BT-474; assay: normalised viability (% of control), CellTiter-Blue; higher = more viable cells (about 100 = DMSO control); details: 1000 nM; incubation time: 72 h
PARAMETER: normalised viability (%)

[[record]]
compound = "COc1cc2nccc(Oc3ccc(NC(=O)C4(C(=O)Nc5ccc(F)cc5)CC4)cc3)c2cc1OC [Cabozantinib]"
parameter = "normalised viability"
test_value = 127

[[record]]
compound = "Cc1ccc(C(=O)N(CCCN)[C@@H](c2oc3cc(Cl)ccc3c(=O)c2Cc2ccccc2)C(C)C)cc1"
parameter = "normalised viability"
test_value = 28.7

[[record]]
compound = "O=P1(NCCCl)OCCCN1CCCl (stereo not given) [Ifosfamide]"
parameter = "normalised viability"
test_value = 112

[[record]]
compound = "CN[C@@H]1C[C@H]2O[C@@](C)([C@@H]1OC)n1c3ccccc3c3c4c(c5c6ccccc6n2c5c31)C(=O)N[C@H]4O"
parameter = "normalised viability"
test_value = 44.2

[[record]]
compound = "O=C1CCC(N2C(=O)c3ccccc3C2=O)C(=O)N1 (stereo not given) [Thalidomide]"
parameter = "normalised viability"
test_value = 110


---

Recorded measurements of normalised viability, one per entry
system: DU-4475; assay: normalised viability (% of control), CellTiter-Blue; higher = more viable cells (about 100 = DMSO control); details: incubation time: 72 h
PARAMETER: normalised viability (%)

[[record]]
compound = "CNCc1ccc(-c2[nH]c3cc(F)cc4c3c2CCNC4=O)cc1 [Rucaparib] (10000 nM)"
target_of_assay = "DU-4475"
test_value = 46.2

[[record]]
compound = "C[C@]12CC[C@@H]3c4ccc(O)cc4C[C@@H](CCCCCCCCC[S+]([O-])CCCC(F)(F)C(F)(F)F)[C@H]3[C@@H]1CC[C@@H]2O (some centres not stated) [Fulvestrant] (10000 nM)"
target_of_assay = "DU-4475"
test_value = 115

[[record]]
compound = "COc1cc2nccc(Oc3ccc(NC(=O)C4(C(=O)Nc5ccc(F)cc5)CC4)cc3)c2cc1OC [Cabozantinib] (1000 nM)"
target_of_assay = "DU-4475"
test_value = 108

[[record]]
compound = "Cc1ccc(C(=O)Nc2ccc(CN3CCN(C)CC3)c(C(F)(F)F)c2)cc1C#Cc1cnc2cccnn12 [Ponatinib] (1000 nM)"
target_of_assay = "DU-4475"
test_value = 50.2

[[record]]
compound = "Cc1ccc(-n2nc(C(C)(C)C)cc2NC(=O)Nc2ccc(OCCN3CCOCC3)c3ccccc23)cc1 [Doramapimod] (10000 nM)"
target_of_assay = "DU-4475"
test_value = 102

[[record]]
compound = "CO[C@H]1/C=C\\C=C(/C)C(=O)NC2=CC(=O)C(NCCN(C)C)=C(C[C@@H](C)C[C@H](OC)[C@H](O)[C@@H](C)/C=C(\\C)[C@@H]1OC(N)=O)C2=O [Alvespimycin] (1000 nM)"
target_of_assay = "DU-4475"
test_value = -0.26

[[record]]
compound = "CCC1=C[C@@H]2CN(C1)Cc1c([nH]c3ccccc13)[C@@](C(=O)OC)(c1cc3c(cc1OC)N(C)[C@H]1[C@@](O)(C(=O)OC)[C@H](OC(C)=O)[C@]4(CC)C=CCN5CC[C@]31[C@@H]54)C2 [Vinorelbine] (10000 nM)"
target_of_assay = "DU-4475"
test_value = 9.67


---

test system: CAL-85-1; assay: normalised response (% of control), CellTiter-Glo; higher = more viable cells (100 = DMSO, 0 = benzethonium chloride kill control); conditions: incubation time: 72 h
PARAMETER: normalised response (%)

[[record]]
compound = "N#CCNC(=O)c1ccc(-c2ccnc(Nc3ccc(N4CCOCC4)cc3)n2)cc1 [Momelotinib] (10000 nM)"
test_value = 43.7

[[record]]
compound = "CO[C@H]1/C=C\\C=C(/C)C(=O)NC2=CC(=O)C(NCCN(C)C)=C(C[C@@H](C)C[C@H](OC)[C@H](O)[C@@H](C)/C=C(\\C)[C@@H]1OC(N)=O)C2=O [Alvespimycin] (1000 nM)"
test_value = 18.1

[[record]]
compound = "CCC(C)(C)C(=O)O[C@H]1C[C@@H](C)C=C2C=C[C@H](C)[C@H](CC[C@@H]3C[C@@H](O)CC(=O)O3)[C@H]21 [Simvastatin] (10000 nM)"
test_value = 84.4

[[record]]
compound = "CN(C)/N=N/c1[nH]cnc1C(N)=O [Dacarbazine] (10000 nM)"
test_value = 101

[[record]]
compound = "Cc1ccc(C(=O)Nc2ccc(CN3CCN(C)CC3)c(C(F)(F)F)c2)cc1C#Cc1cnc2cccnn12 [Ponatinib] (1000 nM)"
test_value = 58

[[record]]
compound = "N.N.[Cl][Pt][Cl] [Cisplatin] (1000 nM)"
test_value = 104

[[record]]
compound = "COc1cc2nccc(Oc3ccc(NC(=O)C4(C(=O)Nc5ccc(F)cc5)CC4)cc3)c2cc1OC [Cabozantinib] (1000 nM)"
test_value = 107


---

system: BT-474; experiment: normalised response (% of control), CellTiter-Glo; higher = more viable cells (100 = DMSO, 0 = benzethonium chloride kill control); conditions: incubation time: 72 h
The compounds listed here are annotated with their normalised response.
PARAMETER: normalised response (%)

[[record]]
compound = "NC(=O)Nc1cc(-c2cccc(F)c2)sc1C(=O)N[C@H]1CCCNC1 [AZD7762] (10 nM)"
target_of_assay = "BT-474"
parameter = "normalised response"
unit_string = "%"
test_value = 105

[[record]]
compound = "O=P1(NCCCl)OCCCN1CCCl (centres undefined) [Ifosfamide] (100 nM)"
target_of_assay = "BT-474"
parameter = "normalised response"
unit_string = "%"
test_value = 97

[[record]]
compound = "O=C(O)c1ccc(-c2c[nH]c3ncc(-c4ccccc4)cc23)cc1C1CCCC1 (100 nM)"
target_of_assay = "BT-474"
parameter = "normalised response"
unit_string = "%"
test_value = 93.8

[[record]]
compound = "C[C@]12CC[C@@H]3c4ccc(O)cc4C[C@@H](CCCCCCCCC[S+]([O-])CCCC(F)(F)C(F)(F)F)[C@H]3[C@@H]1CC[C@@H]2O (some centres undefined) [Fulvestrant] (10 nM)"
target_of_assay = "BT-474"
parameter = "normalised response"
unit_string = "%"
test_value = 104


---

tested on: HCC1143; assay: normalised viability (% of control), CellTiter-Blue; higher = more viable cells (about 100 = DMSO control); details: 100 nM; incubation time: 72 h
PARAMETER: normalised viability (%)

[[record]]
compound = "CCC1=C[C@@H]2CN(C1)Cc1c([nH]c3ccccc13)[C@@](C(=O)OC)(c1cc3c(cc1OC)N(C)[C@H]1[C@@](O)(C(=O)OC)[C@H](OC(C)=O)[C@]4(CC)C=CCN5CC[C@]31[C@@H]54)C2"
parameter = "normalised viability"
test_value = 54.4

[[record]]
compound = "O=P1(NCCCl)OCCCN1CCCl (centres undefined) [Ifosfamide]"
parameter = "normalised viability"
test_value = 83.4

[[record]]
compound = "C#Cc1cccc(Nc2ncnc3cc(OCCOC)c(OCCOC)cc23)c1"
parameter = "normalised viability"
test_value = 92.9

[[record]]
compound = "CC(C)Cn1cnc2c(N)nc3ccccc3c21"
parameter = "normalised viability"
test_value = 120


Entry source: the supplement of paper PMC4862054
